Provide the reported Fluorescence wavelength of each item.
Test: Measurement of a fluorescence spectrum (absorption and fluorescent wavelength, fluorescence intensity)
Assay type: physicochemical
Conditions: dissolved in DMSO, concentration 10^-4 M
Numbers only, in nm.

| Compound | Fluorescence wavelength [nm] |
| --- | --- |
| O=C(CCCCC[n+]1ccc(-c2nc(-c3ccc(-c4ccc(-c5ccccc5)cc4)s3)c3nonc3c2-c2cc(-c3ccc(-c4ccccc4)cc3)cs2)cc1)ON1C(=O)CCC1=O.[Br-] [Synthetic Example 20] | 715 |

For every item below, please supply its Fluorescence wavelength.
1. COc1ccc(-c2nc(/C=C/c3ccc[n+](CCCCCC(=O)ON4C(=O)CCC4=O)c3)c(-c3ccc(OC)cc3)c3nonc23)cc1 [Synthetic Example 2]
2. O=C(CCCCC[n+]1cccc(/C=C/c2nc(-c3ccccc3)c3nsnc3c2-c2ccccc2)c1)ON1C(=O)CCC1=O [Synthetic Example 1]
3. Cc1csc(-c2c(-c3ccc[n+](CCC(=O)ON4C(=O)CCC4=O)c3)nc(-c3ccc(C)s3)c3nonc23)c1 [Synthetic Example 10]

[608, 531, 650]

For every item below, please supply its Fluorescence wavelength.
1. O=C(CCCCC[n+]1ccc(-c2nc(-c3ccc(-c4ccc5ccccc5c4)s3)c3nonc3c2-c2cc(-c3ccc4ccccc4c3)cs2)cc1)ON1C(=O)CCC1=O [Synthetic Example 16]
2. O=C(CCCCC[n+]1cccc(-c2nc(-c3ccccc3)c3nonc3c2-c2ccccc2)c1)ON1C(=O)CCC1=O [Synthetic Example 12]
3. O=C(CCCCC[n+]1ccc(/C=C/c2nc(-c3ccc(-c4cccc5ccccc45)s3)c3nonc3c2-c2ccc(-c3cccc4ccccc34)s2)cc1)ON1C(=O)CCC1=O [Synthetic Example 18]
4. Cc1csc(-c2c(-c3cc[n+](CCCCCC(=O)ON4C(=O)CCC4=O)cc3)nc(-c3ccc(C)s3)c3nonc23)c1 [Synthetic Example 11]

1. 682
2. 513
3. 700
4. 648

----------
Test: Measurement of a fluorescence spectrum (absorption and fluorescent wavelength, fluorescence intensity)
Format: physicochemical
Settings: dissolved in DMSO, concentration 10^-4 M
Measurement Name: Stokes shift (nm)
Numbers only, in nm.

Observe how each entry below is paired with its result.
| Compound | Obs Value |
| --- | --- |
| COc1ccc(-c2nc(/C=C/c3ccc[n+](CCCCCC(=O)ON4C(=O)CCC4=O)c3)c(-c3ccc(OC)cc3)c3nonc23)cc1 [Synthetic Example 2] | 171 |
| Cc1csc(-c2c(-c3cc[n+](CCCCCC(=O)ON4C(=O)CCC4=O)cc3)nc(-c3ccc(C)s3)c3nonc23)c1 [Synthetic Example 11] | 120 |
| Cc1csc(-c2c(-c3ccc[n+](CCC(=O)ON4C(=O)CCC4=O)c3)nc(-c3ccc(C)s3)c3nonc23)c1 [Synthetic Example 10] | 119 |
| O=C(CCCCC[n+]1cccc(/C=C/c2nc(-c3ccccc3)c3nsnc3c2-c2ccccc2)c1)ON1C(=O)CCC1=O [Synthetic Example 1] | 120 |
| O=C(CCCCC[n+]1ccc(-c2nc(-c3ccc(-c4ccc5ccccc5c4)s3)c3nonc3c2-c2cc(-c3ccc4ccccc4c3)cs2)cc1)ON1C(=O)CCC1=O [Synthetic Example 16] | 166 |

For every item below, please supply its Stokes shift.
1. O=C(CCCCC[n+]1ccc(-c2nc(-c3ccc(-c4ccc(-c5ccccc5)cc4)s3)c3nonc3c2-c2cc(-c3ccc(-c4ccccc4)cc3)cs2)cc1)ON1C(=O)CCC1=O.[Br-] [Synthetic Example 20]
2. O=C(CCCCC[n+]1cccc(-c2nc(-c3ccccc3)c3nonc3c2-c2ccccc2)c1)ON1C(=O)CCC1=O [Synthetic Example 12]
3. O=C(CCCCC[n+]1ccc(/C=C/c2nc(-c3ccc(-c4cccc5ccccc45)s3)c3nonc3c2-c2ccc(-c3cccc4ccccc34)s2)cc1)ON1C(=O)CCC1=O [Synthetic Example 18]

186
131
165

----------
Assay: Measurement of a fluorescence spectrum (absorption and fluorescent wavelength, fluorescence intensity)
Type: physicochemical
Details: dissolved in DMSO, concentration 10^-4 M
Hi, to clarify the labels: Criterion met covers Absorption wavelength from 500 nm upward, Criterion not met covers anything below 500 nm.

Solved entries (count: 5):
| Compound | Category Label |
| --- | --- |
| O=C(CCCCC[n+]1cccc(/C=C/c2nc(-c3ccccc3)c3nsnc3c2-c2ccccc2)c1)ON1C(=O)CCC1=O [Synthetic Example 1] | Criterion not met |
| Cc1csc(-c2c(-c3cc[n+](CCCCCC(=O)ON4C(=O)CCC4=O)cc3)nc(-c3ccc(C)s3)c3nonc23)c1 [Synthetic Example 11] | Criterion met |
| O=C(CCCCC[n+]1ccc(-c2nc(-c3ccc(-c4ccc5ccccc5c4)s3)c3nonc3c2-c2cc(-c3ccc4ccccc4c3)cs2)cc1)ON1C(=O)CCC1=O [Synthetic Example 16] | Criterion met |
| O=C(CCCCC[n+]1ccc(-c2nc(-c3ccc(-c4ccc(-c5ccccc5)cc4)s3)c3nonc3c2-c2cc(-c3ccc(-c4ccccc4)cc3)cs2)cc1)ON1C(=O)CCC1=O.[Br-] [Synthetic Example 20] | Criterion met |
| Cc1csc(-c2c(-c3ccc[n+](CCC(=O)ON4C(=O)CCC4=O)c3)nc(-c3ccc(C)s3)c3nonc23)c1 [Synthetic Example 10] | Criterion met |

Can COc1ccc(-c2nc(/C=C/c3ccc[n+](CCCCCC(=O)ON4C(=O)CCC4=O)c3)c(-c3ccc(OC)cc3)c3nonc23)cc1 [Synthetic Example 2] be said to have Absorption wavelength at or above 500 nm?
Criterion not met

Can O=C(CCCCC[n+]1ccc(/C=C/c2nc(-c3ccc(-c4cccc5ccccc45)s3)c3nonc3c2-c2ccc(-c3cccc4ccccc34)s2)cc1)ON1C(=O)CCC1=O [Synthetic Example 18] be said to have Absorption wavelength at or above 500 nm?
Criterion met

Can O=C(CCCCC[n+]1cccc(-c2nc(-c3ccccc3)c3nonc3c2-c2ccccc2)c1)ON1C(=O)CCC1=O [Synthetic Example 12] be said to have Absorption wavelength at or above 500 nm?
Criterion not met
